Cmax values, listed per item
test: Cmax in mouse at 5 mg/kg, po; type: ADME, organism-based; set-up: dose 5 mg/kg, route oral; conditions: in vivo
State the answer as a number, implicitly in ng/mL.

CC(C)(C)[C@H](C(=O)Nc1ncc(Cl)s1)c1ccc(Cl)cc1 ... 569
CC(C)[C@H](C(=O)Nc1ncc(F)s1)c1ccc(Cl)cc1 ... 83
CC(C)(C)[C@H](C(=O)Nc1ncc(-c2ccccc2)s1)c1ccc(Cl)cc1 ... 1870

Consider the record given below.
In: Identify Cmax associated with the molecule `CC(C)[C@H](C(=O)Nc1nccs1)c1ccc(Cl)cc1`
Out: 5

----------
target: Free fatty acid receptor 2 (Homo sapiens, UniProt O15552); assay: Agonist activity at human FFA2 receptor expressed in CHO cells assessed as inhibition of forskolin-induced cAMP production
Listed here: items and their measured IC50.
Give the number; nM is assumed, so skip it.

Worked examples follow.
O=C(Nc1ncc(F)s1)C1(c2ccc(Cl)cc2)CCC1 ... 1500
CSc1cnc(NC(=O)[C@H](c2ccc(Cl)cc2)C(C)(C)C)s1 ... 500
CC(C)C(C(=O)Nc1nc2ccccc2[nH]1)c1ccc(Cl)cc1 (racemic) ... 5200
Cc1csc(NC(=O)[C@H](c2ccc(Cl)cc2)C(C)C)n1 ... 1400
CC(C)C(C(=O)Nc1nc2ccccc2s1)c1ccc(Cl)cc1 (racemic) ... 3000
CC(C)(C)[C@H](C(=O)Nc1ncc(C(F)(F)F)s1)c1ccc(Cl)cc1 ... 1500
CC(C)[C@H](C(=O)Nc1ccon1)c1ccc(Cl)cc1 (racemic) ... 36000
Cc1nc(NC(=O)[C@H](c2ccc(Cl)cc2)C(C)C)sc1C ... 1800
CC(C)(C)[C@H](C(=O)Nc1ncc(F)s1)c1ccc(Cl)cc1 ... 700
O=C(Nc1ncc(F)s1)[C@H](c1ccnc(Cl)c1)C1CC1 ... 16000

In: Answer with the recorded IC50 for the compound listed here: `CC(C)[C@H](C(=O)Nc1nnc(C(F)(F)F)s1)c1ccc(Cl)cc1`
Out: 1900

In: Provide IC50 value for the following compound: `CCC[C@H](C(=O)Nc1nccs1)c1ccc(Cl)cc1`
Out: 5500

In: Recall and state the measured IC50 for `CC(C)[C@H](C(=O)Nc1nccs1)c1ccc(Cl)cc1` .
Out: 700

----------
Target: Free fatty acid receptor 2 (Homo sapiens)
Sequence (whole entry): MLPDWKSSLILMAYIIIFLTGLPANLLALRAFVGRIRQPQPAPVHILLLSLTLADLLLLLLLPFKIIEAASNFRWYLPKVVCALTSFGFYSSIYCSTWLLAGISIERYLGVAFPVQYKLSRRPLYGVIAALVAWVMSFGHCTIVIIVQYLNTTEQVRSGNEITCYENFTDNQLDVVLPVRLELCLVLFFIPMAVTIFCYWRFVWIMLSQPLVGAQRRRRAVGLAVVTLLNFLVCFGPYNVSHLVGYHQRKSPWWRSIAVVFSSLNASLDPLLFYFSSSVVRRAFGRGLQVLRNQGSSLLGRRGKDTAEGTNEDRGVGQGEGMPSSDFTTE
Experiment: Agonist activity at human FFA2 receptor expressed in CHO cells assessed as inhibition of forskolin-induced cAMP production relative to acetate
Format: functional, cell-based
Reported Efficacy values for the following compounds.
Number in %, nothing else.

O=C(Nc1ncc(F)s1)C1(c2ccc(Cl)cc2)CCC1 ... 89
O=C(Nc1ncc(F)s1)[C@H](c1ccc(Cl)cc1)C1CC1 ... 103
Cc1cnc(NC(=O)[C@H](c2ccc(Cl)cc2)C(C)C)s1 ... 99

In: Provide only the value of recorded Efficacy for `Cc1csc(NC(=O)[C@H](c2ccc(Cl)cc2)C(C)C)n1`
Out: 87

In: Answer with the recorded Efficacy for the compound listed here: `CCC(=O)O`
Out: 100

In: For the compound `O=C(Nc1ncc(F)s1)[C@H](c1ccnc(Cl)c1)C1CC1` , give its reported Efficacy.
Out: 120
